# target-entity: serotoninergic 5-HT7 receptor (Homo sapiens)
# Sequence (P34969 whole entry): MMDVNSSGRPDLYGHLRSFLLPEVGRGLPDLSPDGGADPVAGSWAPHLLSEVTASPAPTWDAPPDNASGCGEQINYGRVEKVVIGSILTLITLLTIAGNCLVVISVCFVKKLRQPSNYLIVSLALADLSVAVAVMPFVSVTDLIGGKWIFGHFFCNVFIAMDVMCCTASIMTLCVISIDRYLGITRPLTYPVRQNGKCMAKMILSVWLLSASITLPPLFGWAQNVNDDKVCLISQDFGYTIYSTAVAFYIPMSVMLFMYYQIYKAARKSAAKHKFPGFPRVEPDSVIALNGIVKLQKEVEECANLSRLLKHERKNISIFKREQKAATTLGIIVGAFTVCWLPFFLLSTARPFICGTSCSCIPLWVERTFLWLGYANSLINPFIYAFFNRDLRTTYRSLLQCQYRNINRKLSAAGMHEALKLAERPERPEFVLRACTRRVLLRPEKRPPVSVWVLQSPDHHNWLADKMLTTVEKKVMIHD
# assay-info: Binding assay 5-HT7 (h), [3H]LSD, CHO cells
# Set-up: expressed in transfected cells; host or cells: CHO cells
# measurement-conditions: read-out: 5-HT7
property-label: inhibition at 1 µM (%)
API: value field is a number in %; no unit string.

Here is how some molecules turned out for inhibition at 1 µM.
1) O=S(=O)(NCCCN1CCC(c2noc3cc(F)ccc23)CC1)c1ccc2c(c1)CCO2 ... 87
2) O=S(=O)(NCCCCN1CCC(c2noc3cc(F)ccc23)CC1)c1ccc(Cl)cc1 ... 91
3) O=S(=O)(NCCCCN1CCN(c2nsc3ccccc23)CC1)c1ccc(Cl)c(Cl)c1 ... 98

Exercise: Given `Cc1cccc(S(=O)(=O)NCCCCN2CCN(c3cccc4c3OCCO4)CC2)c1` , state its recorded inhibition at 1 µM.
Key: 83

----------
# target-entity: histaminergic H1 receptor (Homo sapiens, UniProt P35367)
# Sequence (P35367 whole entry): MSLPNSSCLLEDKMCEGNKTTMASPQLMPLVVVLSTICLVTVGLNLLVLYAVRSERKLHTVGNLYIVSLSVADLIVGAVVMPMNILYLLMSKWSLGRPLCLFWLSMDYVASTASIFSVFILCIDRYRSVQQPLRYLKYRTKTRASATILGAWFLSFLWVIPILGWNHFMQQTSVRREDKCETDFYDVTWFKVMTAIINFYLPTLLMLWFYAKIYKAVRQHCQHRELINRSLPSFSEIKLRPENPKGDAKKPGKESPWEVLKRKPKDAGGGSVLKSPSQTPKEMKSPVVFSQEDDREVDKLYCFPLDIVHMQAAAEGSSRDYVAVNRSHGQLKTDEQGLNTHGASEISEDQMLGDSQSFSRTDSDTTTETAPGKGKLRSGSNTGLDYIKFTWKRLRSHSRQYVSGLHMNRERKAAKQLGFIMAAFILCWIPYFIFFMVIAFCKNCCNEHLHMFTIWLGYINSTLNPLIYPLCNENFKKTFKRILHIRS
# assay-info: Cellular functional assay, histaminergic H1 receptor (agonism/antagonism)
# Assay type: cell-based
# measurement-conditions: agonist effect, percent of control specific agonist response; compounds tested at 1×10^−6M; read-out: H1 -ag [%]
property-label: activation at 1 µM
Put your answer as a value accompanied by its unit after it.

Here is how some molecules turned out for activation at 1 µM.
1. N#Cc1cccc(S(=O)(=O)NCCCN2CCC(c3noc4cc(F)ccc34)CC2)c1 [Compound 338] ... 1%
2. Cc1c(S(=O)(=O)NCCCCN2CCC(c3noc4cc(F)ccc34)CC2)sc2ccc(F)cc12 [Compound 101] ... 33%
3. O=S(=O)(NCCCCN1CCN(c2nsc3ccccc23)CC1)c1ccc2cc(Cl)ccc2c1 [Compound 61] ... 1%

Query molecule follows.
Exercise: Given O=c1[nH]c2ccc(S(=O)(=O)NCCCN3CCN(c4nsc5ccccc45)CC3)cc2o1 [Compound 8] , state its recorded activation at 1 µM.
Key: 1%

----------
# target-entity: serotonine transporter (SERT) receptor (Homo sapiens)
# Construct: expressed in transfected cells; host or cells: CHO cells
# Sequence (P31645 whole entry): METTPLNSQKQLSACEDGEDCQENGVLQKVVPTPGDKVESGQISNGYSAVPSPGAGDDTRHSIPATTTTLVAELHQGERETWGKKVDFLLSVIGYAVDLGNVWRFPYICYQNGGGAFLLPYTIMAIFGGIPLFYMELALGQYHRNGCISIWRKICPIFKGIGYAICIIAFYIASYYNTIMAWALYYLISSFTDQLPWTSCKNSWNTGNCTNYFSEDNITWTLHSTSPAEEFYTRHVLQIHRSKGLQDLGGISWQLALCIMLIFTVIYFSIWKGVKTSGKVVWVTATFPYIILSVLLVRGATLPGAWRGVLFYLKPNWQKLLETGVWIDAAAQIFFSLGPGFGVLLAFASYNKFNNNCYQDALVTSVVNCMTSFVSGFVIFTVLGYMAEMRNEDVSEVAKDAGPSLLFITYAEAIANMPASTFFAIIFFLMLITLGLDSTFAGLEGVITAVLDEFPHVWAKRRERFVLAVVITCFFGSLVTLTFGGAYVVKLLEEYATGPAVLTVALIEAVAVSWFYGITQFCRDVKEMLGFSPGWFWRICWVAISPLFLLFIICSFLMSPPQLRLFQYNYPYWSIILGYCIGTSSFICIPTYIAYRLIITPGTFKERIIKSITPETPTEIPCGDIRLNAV
# assay-info: Binding assay SERT (h), [3H]imipramine, CHO cells
# measurement-conditions: read-out: SERT [%]
# inhibition at 1 µM values compiled below
API: value field is a number in %; no unit string.

1) O=S(=O)(NCCCCN1CCN(c2nsc3ccccc23)CC1)c1ccc(Br)cc1 [Compound 229] ... 9

Exercise: Give the reported inhibition at 1 µM for O=S(=O)(NCCCCN1CCN(c2nsc3ccccc23)CC1)c1cccc(C(F)(F)F)c1 [Compound 235] (system: serotonine transporter (SERT) receptor (Homo sapiens)).
Key: 8

Exercise: Give the reported inhibition at 1 µM for O=S(=O)(NCCCCN1CCN(c2nsc3ccccc23)CC1)c1ccc(-c2ccccc2)cc1 [Compound 237] (system: serotonine transporter (SERT) receptor (Homo sapiens)).
Key: -7

Exercise: Give the reported inhibition at 1 µM for O=c1[nH]c2cccc(N3CCN(CCCNS(=O)(=O)c4cccc(Cl)c4)CC3)c2[nH]1 [Compound 174] (system: serotonine transporter (SERT) receptor (Homo sapiens)).
Key: 11

----------
# target-entity: adrenergic α2C receptor (Homo sapiens, UniProt P18825)
# Sequence (P18825 whole entry): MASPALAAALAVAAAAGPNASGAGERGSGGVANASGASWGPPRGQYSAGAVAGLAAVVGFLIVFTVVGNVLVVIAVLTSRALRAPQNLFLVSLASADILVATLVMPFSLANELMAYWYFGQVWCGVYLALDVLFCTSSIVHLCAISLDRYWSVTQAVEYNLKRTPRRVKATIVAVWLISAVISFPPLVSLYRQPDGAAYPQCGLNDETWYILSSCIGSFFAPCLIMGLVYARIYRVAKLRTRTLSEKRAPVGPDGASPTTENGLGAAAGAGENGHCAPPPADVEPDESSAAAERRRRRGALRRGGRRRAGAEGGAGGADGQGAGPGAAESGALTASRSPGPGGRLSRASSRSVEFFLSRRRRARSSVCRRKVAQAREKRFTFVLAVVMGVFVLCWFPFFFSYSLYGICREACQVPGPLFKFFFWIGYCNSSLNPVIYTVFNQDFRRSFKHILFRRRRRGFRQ
# assay-info: Binding assay α2C (h), [3H]RX 821002, CHO cells
# Design: expressed in transfected cells; host or cells: CHO cells
# measurement-conditions: read-out: α2C [%]
property-label: inhibition at 1 µM (%)
API: value field is a number in %; no unit string.

1) O=c1[nH]c2cccc(N3CCN(CCCNS(=O)(=O)c4cccc(F)c4)CC3)c2[nH]1 ... 44
2) O=S(=O)(NCCCCN1CCN(c2cccc3[nH]ccc23)CC1)c1ccc(F)c(F)c1 ... 98
3) O=S(=O)(NCCCN1CCN(c2nsc3ccccc23)CC1)c1ccc(Br)cc1 ... 95

Exercise: Given `O=S(=O)(NCCCCN1CCC(c2noc3cc(F)ccc23)CC1)c1ccc2c(c1)OCO2` , state its recorded inhibition at 1 µM.
Key: 101

Exercise: Given `CC(C)(C)c1ccc(S(=O)(=O)NCCCN2CCN(c3nsc4ccccc34)CC2)cc1` , state its recorded inhibition at 1 µM.
Key: 92

Exercise: Given `O=S(=O)(NCCCN1CCN(c2nsc3ccccc23)CC1)c1ccc(F)c(Cl)c1` , state its recorded inhibition at 1 µM.
Key: 100

Exercise: Given `O=S(=O)(NCCCCN1CCN(c2cccc3[nH]ccc23)CC1)c1cccc(Cl)c1` , state its recorded inhibition at 1 µM.
Key: 99

Exercise: Given `O=S(=O)(NCCCN1CCN(c2nsc3ccccc23)CC1)c1ccc(F)cc1` , state its recorded inhibition at 1 µM.
Key: 93

----------
# Tested on: adrenergic α1 receptor
# assay-info: Binding assay α1 (non-selective), [3H]prazosin, rat cerebral cortex
# measurement-conditions: percent inhibition of control specific binding; compounds tested at 1×10^−6 M
property-label: α1 [%] (%)
API: value field is a number in %; no unit string.

Here is how some compounds turned out for α1 [%].
1) O=S(=O)(NCCCN1CCN(c2cccc3c2OCCO3)CC1)c1ccc2ccccc2c1 [Compound 406] ... 77
2) O=S(=O)(NCCCCN1CCC(c2noc3cc(F)ccc23)CC1)c1ccc(OC(F)(F)F)cc1 [Compound 304] ... 101

Exercise: Given O=S(=O)(NCCCCN1CCC(c2noc3cc(F)ccc23)CC1)c1cccc(Br)c1 [Compound 109] , state its recorded α1 [%].
Key: 101

Exercise: Given O=S(=O)(NCCCCN1CCC(c2noc3cc(F)ccc23)CC1)c1ccc2c(c1)CCO2 [Compound 317] , state its recorded α1 [%].
Key: 99

Exercise: Given O=C1COc2c(cccc2N2CCN(CCCCNS(=O)(=O)c3cccc(F)c3)CC2)N1 [Compound 211] , state its recorded α1 [%].
Key: 80

Exercise: Given O=S(=O)(NCCCN1CCC(c2noc3cc(F)ccc23)CC1)c1ccc2c(c1)CCO2 [Compound 350] , state its recorded α1 [%].
Key: 102

Exercise: Given O=S(=O)(NCCCCN1CCC(c2noc3cc(F)ccc23)CC1)c1ccc(Cl)s1 [Compound 308] , state its recorded α1 [%].
Key: 91

Exercise: Given O=S(=O)(NCCCN1CCN(c2nsc3ccccc23)CC1)c1ccc(Br)cc1 [Compound 252] , state its recorded α1 [%].
Key: 27

Exercise: Given O=S(=O)(NCCCCN1CCN(c2noc3ccccc23)CC1)c1cccc2ccccc12 [Compound 13] , state its recorded α1 [%].
Key: 102

Exercise: Given O=S(=O)(NCCCCN1CCN(c2cccc3[nH]ccc23)CC1)c1cccc(Cl)c1 [Compound 113] , state its recorded α1 [%].
Key: 99

Exercise: Given Cc1c(S(=O)(=O)NCCCCN2CCN(c3nsc4ccccc34)CC2)sc2ccc(F)cc12 [Compound 65] , state its recorded α1 [%].
Key: 95

Exercise: Given Cc1cccc(S(=O)(=O)NCCCCN2CCN(c3nsc4ccccc34)CC2)c1 [Compound 3] , state its recorded α1 [%].
Key: 100

Exercise: Given O=S(=O)(NCCCCN1CCN(c2cccc3c2OCCO3)CC1)c1ccc(F)c(Cl)c1 [Compound 392] , state its recorded α1 [%].
Key: 99

Exercise: Given O=S(=O)(NCCCN1CCN(c2nsc3ccccc23)CC1)c1cccc(F)c1 [Compound 72] , state its recorded α1 [%].
Key: 93

Exercise: Given O=S(=O)(NCCCCN1CCC(c2noc3cc(F)ccc23)CC1)c1ccc(C(F)(F)F)cc1 [Compound 302] , state its recorded α1 [%].
Key: 100

----------
# activation at 1 µM values compiled below
# target-entity: serotoninergic 5-HT6 receptor (Homo sapiens, UniProt P50406)
# Sequence (P50406 whole entry): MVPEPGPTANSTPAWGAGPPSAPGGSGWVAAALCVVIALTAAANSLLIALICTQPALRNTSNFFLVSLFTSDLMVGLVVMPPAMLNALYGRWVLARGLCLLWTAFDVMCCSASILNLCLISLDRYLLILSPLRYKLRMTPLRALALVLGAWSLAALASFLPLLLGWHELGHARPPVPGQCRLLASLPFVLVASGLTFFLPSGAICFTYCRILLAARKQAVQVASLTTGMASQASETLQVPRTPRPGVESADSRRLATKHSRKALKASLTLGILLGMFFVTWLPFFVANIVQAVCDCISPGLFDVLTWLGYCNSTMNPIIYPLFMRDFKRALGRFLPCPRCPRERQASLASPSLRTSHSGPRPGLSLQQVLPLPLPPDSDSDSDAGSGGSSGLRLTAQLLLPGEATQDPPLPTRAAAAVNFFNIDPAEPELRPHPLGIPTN
# assay-info: Cellular functional assay, serotoninergic 5-HT6 receptor (agonism/antagonism)
# Assay type: cell-based
# measurement-conditions: agonist effect, percent of control specific agonist response; compounds tested at 1×10^−6M; read-out: 5-HT6-ag [%]
API: value field is a number in %; no unit string.

Here is how some molecules turned out for activation at 1 µM.
1) N#Cc1cccc(S(=O)(=O)NCCCN2CCC(c3noc4cc(F)ccc34)CC2)c1 [Compound 338] ... 0
2) O=S(=O)(NCCCN1CCC(c2noc3cc(F)ccc23)CC1)c1cccc2ccccc12 [Compound 20] ... -2
3) O=c1[nH]c2ccc(S(=O)(=O)NCCCN3CCN(c4nsc5ccccc45)CC3)cc2o1 [Compound 8] ... -1

Exercise: Given O=S(=O)(NCCCN1CCC(c2noc3cc(F)ccc23)CC1)c1ccc2ccccc2c1 [Compound 21] , state its recorded activation at 1 µM.
Key: -2

Exercise: Given O=S(=O)(NCCCCN1CCC(c2noc3cc(F)ccc23)CC1)c1ccc(Br)cc1 [Compound 298] , state its recorded activation at 1 µM.
Key: 0

Exercise: Given O=S(=O)(NCCCCN1CCC(c2noc3cc(F)ccc23)CC1)c1ccc2cc(Cl)ccc2c1 [Compound 97] , state its recorded activation at 1 µM.
Key: -2

Exercise: Given Cc1cccc(S(=O)(=O)NCCCCN2CCN(c3noc4ccccc34)CC2)c1 [Compound 15] , state its recorded activation at 1 µM.
Key: 2

Exercise: Given O=S(=O)(NCCCN1CCC(c2noc3cc(F)ccc23)CC1)c1ccc2cc(Cl)ccc2c1 [Compound 98] , state its recorded activation at 1 µM.
Key: -2

Exercise: Given Cc1c(S(=O)(=O)NCCCCN2CCN(c3nsc4ccccc34)CC2)sc2ccc(F)cc12 [Compound 65] , state its recorded activation at 1 µM.
Key: -1

Reference source: patent US8822517B2
